# Test Target: FLT-3 (Homo sapiens, UniProt P36888)
# Sequence (P36888 27-993): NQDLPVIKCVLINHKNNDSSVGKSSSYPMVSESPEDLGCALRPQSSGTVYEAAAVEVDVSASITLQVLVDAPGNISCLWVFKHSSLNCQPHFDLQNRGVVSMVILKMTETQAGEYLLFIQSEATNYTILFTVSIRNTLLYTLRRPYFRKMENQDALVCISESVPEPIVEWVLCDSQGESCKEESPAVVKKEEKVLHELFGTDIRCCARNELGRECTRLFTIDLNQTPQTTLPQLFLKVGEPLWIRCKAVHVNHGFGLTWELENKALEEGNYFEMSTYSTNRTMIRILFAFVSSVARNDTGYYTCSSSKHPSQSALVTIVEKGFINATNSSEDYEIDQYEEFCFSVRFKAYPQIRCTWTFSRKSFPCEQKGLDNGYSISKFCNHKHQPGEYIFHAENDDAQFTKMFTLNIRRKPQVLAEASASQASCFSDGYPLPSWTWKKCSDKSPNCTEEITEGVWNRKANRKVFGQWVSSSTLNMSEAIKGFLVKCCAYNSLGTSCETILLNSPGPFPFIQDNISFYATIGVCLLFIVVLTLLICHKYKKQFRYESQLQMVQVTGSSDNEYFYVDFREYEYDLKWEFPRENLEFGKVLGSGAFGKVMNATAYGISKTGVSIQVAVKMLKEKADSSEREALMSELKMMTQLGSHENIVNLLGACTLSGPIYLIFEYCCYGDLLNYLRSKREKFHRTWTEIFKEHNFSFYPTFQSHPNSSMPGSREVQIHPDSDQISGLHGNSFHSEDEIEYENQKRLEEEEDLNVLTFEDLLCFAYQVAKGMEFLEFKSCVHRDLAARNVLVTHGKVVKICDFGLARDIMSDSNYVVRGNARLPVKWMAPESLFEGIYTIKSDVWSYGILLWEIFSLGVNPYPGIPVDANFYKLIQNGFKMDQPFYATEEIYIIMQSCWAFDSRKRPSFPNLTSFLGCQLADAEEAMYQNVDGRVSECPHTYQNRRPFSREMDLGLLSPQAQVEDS
pKi: −log10 of the molar value.
Assay Readout: pKi

Sample records with pKi:
pKi in this record for `Clc1cccc(-c2cnoc2-c2c[nH]c3ncccc23)c1Cl` : 4.90 to 6.00

Data point: `Fc1cccc(-c2cnoc2-c2c[nH]c3ncc(Cl)cc23)c1F` ; pKi = 4.90 to 6.00

// pKi lookup, compound = `CN1CCN(c2ccc(-c3cnc4[nH]cc(-c5oncc5-c5cccc(F)c5F)c4c3)cn2)CC1` , result: > 6.70

Memo: `Fc1cccc(-n2cnnc2-c2c[nH]c3ncc(-c4ccc(N5CCC[C@H]5CN5CCCC5)nc4)cc23)c1F` , reported pKi: 6.00 to 6.70

For record `Fc1cccc(-c2cnoc2-c2c[nH]c3ncc(-c4cnc5[nH]ccc5c4)cc23)c1F` the listed pKi is > 6.70

Further cases:
pKi in this record for `N#CCC(=O)N1CCC(c2cnc3[nH]cc(-c4oncc4-c4cccc(F)c4F)c3c2)CC1` : 6.00 to 6.70

// sample `Fc1cccc(-n2cnnc2-c2c[nH]c3ncc(-c4ccc(CN5CCOCC5)cc4)cc23)c1F` , its pKi was 6.00 to 6.70

Documented pKi of `CC(=O)Nc1cccc(-c2cnc3[nH]cc(-c4oncc4-c4cccc(F)c4F)c3c2)c1` : > 6.70

====

Listed next: entries and their corresponding Ki.
# Test Target: TAK1A-TAB fusion protein (Homo sapiens, UniProt O43318)
# Construct: using 20 nM TAK1A-TAB fusion protein
# Sequence (O43318 with tags, fused parts or gaps isoform O43318-2 limits assumed): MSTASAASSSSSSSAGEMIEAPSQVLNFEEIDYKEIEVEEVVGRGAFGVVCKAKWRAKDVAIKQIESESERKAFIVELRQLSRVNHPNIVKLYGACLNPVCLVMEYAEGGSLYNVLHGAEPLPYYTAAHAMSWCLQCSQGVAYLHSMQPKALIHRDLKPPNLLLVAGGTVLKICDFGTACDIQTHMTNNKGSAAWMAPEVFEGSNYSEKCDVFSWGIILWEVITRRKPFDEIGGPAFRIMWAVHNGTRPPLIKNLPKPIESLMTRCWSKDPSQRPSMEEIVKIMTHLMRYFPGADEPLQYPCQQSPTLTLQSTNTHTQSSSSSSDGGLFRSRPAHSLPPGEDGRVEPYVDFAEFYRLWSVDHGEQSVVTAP
# Protocol: TAK-1 inhibition assay, radiometric filter binding assay
# Assay Conditions: 50 μM ATP, 12 μM bovine myelin basic protein, 20 nM TAK1A-TAB fusion protein

These solved cases illustrate the format of a correct answer.
Please fill in: Ki reported for Fc1cccc(-c2cnoc2-c2c[nH]c3ncc(C4=CCC(NCc5ccccc5)CC4)cc23)c1F (stereo not shown) [Compound 136] = < 200 nM

Summary for this molecule, CN1CCN(C(=O)[C@H]2C[C@@H]2c2cnc3[nH]cc(-c4oncc4-c4cccc(F)c4F)c3c2)CC1 (relative stereo) [Compound 142] : Ki is 200 to 1000 nM

Ki for Fc1cccc(-c2cnoc2-c2c[nH]c3ncc(C4=CCC(N5CCOCC5)CC4)cc23)c1F (stereo not shown) [Compound 139] is 200 to 1000 nM

Kindly consider the entry below.
Entry Cc1noc(-c2c[nH]c3ncc(-c4ccc(N5CCN(C)CC5)cc4)cc23)c1-c1cccc(F)c1F [Compound 135] , Ki reported as < 200 nM

====

The next entries give measured Ki for GSK-3β, (AA 1-420) (Homo sapiens).

The following molecules have reported results that may help.
So the reported Ki for `Oc1cnc2[nH]cc(-c3oncc3-c3cccc(Cl)c3Cl)c2c1` , on GSK-3β, (AA 1-420) (Homo sapiens), turned out to be 1 to 12.5 µM

Summary line: `Fc1cccc(-c2cnoc2-c2c[nH]c3ncc(-c4ccc(N5CCNCC5)cc4)cc23)c1F` , GSK-3β, (AA 1-420) (Homo sapiens), reported Ki = < 0.2 µM

Test item `CC(=O)Nc1cccc(-c2cnc3[nH]cc(-c4oncc4-c4cccc(F)c4F)c3c2)c1` ; GSK-3β, (AA 1-420) (Homo sapiens); reported Ki was 0.2 to 1 µM

`Fc1cccc(-c2cnoc2-c2c[nH]c3ncc(Br)cc23)c1F` on GSK-3β, (AA 1-420) (Homo sapiens) gives Ki = 0.2 to 1 µM

Entry `CN1CCN(Cc2ccc(-c3cnc4[nH]cc(-c5oncc5-c5cccc(F)c5F)c4c3)cc2)CC1` ; assay system GSK-3β, (AA 1-420) (Homo sapiens); Ki recorded at 0.2 to 1 µM

Next:
Bench note, GSK-3β, (AA 1-420) (Homo sapiens): `N#Cc1ccc(-c2cnc3[nH]cc(-c4oncc4-c4cccc(F)c4F)c3c2)cc1` , Ki reads 0.2 to 1 µM

GSK-3β, (AA 1-420) (Homo sapiens) Ki of `Fc1cccc(Cc2cnoc2-c2c[nH]c3ncccc23)c1F` is 0.2 to 1 µM

Item CN(C)C1CC=C(c2cnc3[nH]cc(-c4oncc4-c4cccc(F)c4F)c3c2)CC1 (centres unmarked) ; assay system GSK-3β, (AA 1-420) (Homo sapiens); Ki reported as < 0.2 µM

====

We begin with a simple list: items and their reported Ki.
# Test Target: JAK3 (Homo sapiens, UniProt P52333)
# Sequence (P52333 1-1124): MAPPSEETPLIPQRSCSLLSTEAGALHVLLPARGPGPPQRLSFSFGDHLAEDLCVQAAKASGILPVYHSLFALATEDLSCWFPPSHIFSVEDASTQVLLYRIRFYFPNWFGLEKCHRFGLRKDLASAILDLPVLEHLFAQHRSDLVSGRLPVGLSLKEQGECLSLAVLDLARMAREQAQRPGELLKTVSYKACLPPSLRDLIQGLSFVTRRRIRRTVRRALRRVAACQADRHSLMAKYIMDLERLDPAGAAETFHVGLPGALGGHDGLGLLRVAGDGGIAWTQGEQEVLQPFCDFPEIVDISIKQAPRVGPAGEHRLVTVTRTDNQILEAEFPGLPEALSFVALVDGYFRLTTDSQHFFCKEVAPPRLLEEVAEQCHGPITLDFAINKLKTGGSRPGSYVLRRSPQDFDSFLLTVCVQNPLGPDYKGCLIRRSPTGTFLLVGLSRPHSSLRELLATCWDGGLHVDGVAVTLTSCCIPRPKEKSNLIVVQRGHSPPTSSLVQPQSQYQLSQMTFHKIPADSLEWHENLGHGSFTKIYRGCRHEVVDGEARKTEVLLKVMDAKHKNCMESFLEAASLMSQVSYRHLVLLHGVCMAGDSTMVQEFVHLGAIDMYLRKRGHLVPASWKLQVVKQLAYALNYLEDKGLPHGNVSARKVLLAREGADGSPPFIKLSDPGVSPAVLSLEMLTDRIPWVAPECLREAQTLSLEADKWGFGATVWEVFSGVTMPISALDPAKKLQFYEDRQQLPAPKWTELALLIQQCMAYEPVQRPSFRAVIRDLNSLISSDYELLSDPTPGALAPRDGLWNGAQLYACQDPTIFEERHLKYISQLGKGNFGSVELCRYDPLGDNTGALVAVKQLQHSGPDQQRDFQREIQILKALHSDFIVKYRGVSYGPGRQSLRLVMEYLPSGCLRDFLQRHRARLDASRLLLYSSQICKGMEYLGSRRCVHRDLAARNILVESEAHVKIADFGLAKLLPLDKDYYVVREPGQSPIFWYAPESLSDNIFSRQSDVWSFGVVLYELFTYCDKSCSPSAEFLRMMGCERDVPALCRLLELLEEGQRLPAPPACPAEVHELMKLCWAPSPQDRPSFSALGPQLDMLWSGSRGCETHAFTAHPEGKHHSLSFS

# Ki of Fc1ccc(F)c(-c2cnoc2-c2c[nH]c3ncccc23)c1F [Compound 41] = < 200 nM

Value of Ki reported for the compound Fc1cccc(-c2cnoc2-c2c[nH]c3ccc(-c4ccncc4)cc23)c1F [Compound 34] is 1000 to 12500 nM

In plain terms, Nc1ccc(-c2cnc3[nH]cc(-c4oncc4-c4cccc(F)c4F)c3c2)cc1 [Compound 90] has a documented Ki of < 200 nM

Record summary for CC(=O)N1CCC(c2cnc3[nH]cc(-c4oncc4-c4cccc(F)c4F)c3c2)CC1 [Compound 63] : reported Ki = 200 to 1000 nM

For this compound ( Fc1cccc(-c2cnoc2-c2c[nH]c3ncc(-c4ccc(CN5CCOCC5)cc4)cc23)c1F [Compound 92] ), measured Ki is < 200 nM

Recorded result, OC1CCN(c2ccc(-c3cnc4[nH]cc(-c5nncn5-c5cccc(F)c5F)c4c3)cn2)CC1 [Compound 116] , Ki: 200 to 1000 nM

# Ki (compound: Fc1cccc(-n2cnnc2-c2c[nH]c3ncc(-c4ccc(N5CCC(N6CCCC6)CC5)nc4)cc23)c1F [Compound 123] ) is 1000 to 12500 nM

// sample C=Cc1cnc2[nH]cc(-c3oncc3-c3cccc(F)c3F)c2c1 [Compound 66] , its Ki was < 200 nM

So, Oc1cnc2[nH]cc(-c3oncc3-c3cccc(F)c3F)c2c1 [Compound 43] ? Its Ki was < 200 nM

Input CN(C)C1CC=C(c2cnc3[nH]cc(-c4oncc4-c4cccc(F)c4F)c3c2)CC1 (centres unmarked) [Compound 138] . Output Ki: < 200 nM

New cases:
Entry Fc1cccc(-n2cnnc2-c2c[nH]c3ncc(-c4ccc(N5CCC[C@H]5CN5CCCC5)nc4)cc23)c1F [Compound 115] , Ki reported as 1000 to 12500 nM

Data provenance is patent US7446199B2.
